pIC50: −log10 of the molar value.
Recorded pIC50 values (Acetylcholinesterase (Homo sapiens)) are given below.
REPORTED PROPERTY: pIC50

• CC(=O)n1c2c(c3ccccc31)Oc1nc(C)[nH]c(=O)c1C2c1cccc(Br)c1 (stereo not given) = < 3.55
• CC(=O)n1c2c(c3ccccc31)Oc1nc(C)[nH]c(=O)c1C2c1cccc([N+](=O)[O-])c1 (stereo not given) = < 3.51
• CC(=O)n1c2c(c3ccccc31)Oc1nc(C)[nH]c(=O)c1C2c1ccc([N+](=O)[O-])cc1 (stereo not given) = < 3.51
• CC(=O)n1c2c(c3ccccc31)Oc1nc(C)[nH]c(=O)c1C2c1ccc(Cl)cc1 (stereo not given) = < 3.50
• CC(=O)n1c2c(c3ccccc31)Oc1nc(C)[nH]c(=O)c1C2c1ccc(C#N)cc1 (stereo not given) = < 3.49
